EC50 reference
TARGET DESC: T1, Macaque Trop-2-His (macaque, UniProt P09758 27-274 (human entry))
T1 construct: Extracellular domain of macaque Trop-2 recombinantly linked to His; also called monkey Trop-2-His protein; monkey Trop-2
T1 chain: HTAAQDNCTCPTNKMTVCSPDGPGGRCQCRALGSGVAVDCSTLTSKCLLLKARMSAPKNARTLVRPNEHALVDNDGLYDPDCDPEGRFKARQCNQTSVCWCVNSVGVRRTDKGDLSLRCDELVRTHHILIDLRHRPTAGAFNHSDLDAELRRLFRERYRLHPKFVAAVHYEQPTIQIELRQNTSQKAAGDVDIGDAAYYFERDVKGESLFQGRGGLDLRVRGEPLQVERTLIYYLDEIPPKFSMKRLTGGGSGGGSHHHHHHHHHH
EXPERIMENTAL DETAILS: ELISA, plate-coated macaque Trop-2-His
Answer in pM, number only, no unit symbol.

hz-Ab2-1.2 (antibody, human IgG1, kappa, V domains shown, Humanized antibody) VH: EVQLVESGPGLIQPGGSLRLSCAVSGFSLTYYGIDWVRQPPGKGLEWVGVIWGSGNTKYNYALKSRLTISKDNSKSTLYLQMNSLRAEDTAVYYCARFYEGFAYWGQGTLVTVSS VL: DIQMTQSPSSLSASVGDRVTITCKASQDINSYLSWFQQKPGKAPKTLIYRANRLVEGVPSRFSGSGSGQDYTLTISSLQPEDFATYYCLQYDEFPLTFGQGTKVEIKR : 64

Need EC50 of hz-Ab21-1.1 (antibody, human IgG1, kappa, V domains shown, Humanized antibody) VH: EVQLVESGGGLVKPGGSLRLSCAASGFTLRNYGVHWVRQAPGKGLEWVGVIWSSGTTDYAAPVKGRFTISKDNSKNTLYLQMNSLKTEDTAVYYCTRDGDYDYYTMDYWGQGTLVTVSS VL: EIVLTQSPATLSLSPGERATLSCRASKSVSTSAYSYIHWYQQKPGQAPRLLIYLTSNLESGIPARFSGSGSGTDFTLTISSLEPEDFAVYYCQHSRELPYTFGQGTKVEIKR , thanks.
98
